List of Cleavage rate constant, Metathesized and hydrogenated values.
System: trypsin
Experiment: Peptide trypsin digest (cleavage rate constants)
Type: in vitro ADME
Conditions: metathesized and hydrogenated peptide, 10% EtOH in 50 mM Tris pH 8.3, room temperature
Description: Peptide trypsin digest: A typical peptide trypsin digest experiment was performed by adding 5 μL of a 20× trypsin solution in 1 mM HCl to a 100 μL solution of peptide at 9 μM in 10% EtOH in 50 mM Tris at pH 8.3. The reaction was allowed to proceed at room temperature for 30 min at which time it was quenched by adding 100 μL of a 1% trifluoroacetic acid solution and frozen on dry ice. The sample was then thawed and injected into a reverse phase HPLC on a C18 column for quantitation at 280 nm. […]
Bridge positions count the residues as written; N and C are the ends. Square brackets hold non-standard residues; d marks the D form. R‑13 = (R)-2-(2'-pentenyl)alanine; R‑14 = (R)-2-(2′-hexenyl)alanine; S‑14 = (S)-2-(2′-hexenyl)alanine; S‑16 = (S)-2-(2′-octenyl)alanine
Endpoint Label: Cleavage rate constant, Metathesized and hydrogenated (M⁻¹ s⁻¹)

Substance	Recorded Number
Ri,i+7S(10): Ac-EWAEyAAAKFLzAHA-NH2 (SEQ ID NO: 2), (y,z) = (R-14,S-14), 10 carbon crosslink (Ac-EWAE[R‑14]AAAKFL[S‑14]AHA-NH2; staple 5-12)	0.34
Ri,i+7S(11): Ac-EWAEyAAAKFLzAHA-NH2 (SEQ ID NO: 2), (y,z) = (R-13,S-16), 11 carbon crosslink (Ac-EWAE[R‑13]AAAKFL[S‑16]AHA-NH2; staple 5-12)	0.058
Ri,i+7S(12): Ac-EWAEyAAAKFLzAHA-NH2 (SEQ ID NO: 2), (y,z) = (R-14,S-16), 12 carbon crosslink; cis and trans isomers (Ac-EWAE[R‑14]AAAKFL[S‑16]AHA-NH2; staple 5-12; also: cis and trans olefin isomers)	0.12
Ri,i+7S(9): Ac-EWAEyAAAKFLzAHA-NH2 (SEQ ID NO: 2), (y,z) = (R-13,S-14), 9 carbon crosslink (Ac-EWAE[R‑13]AAAKFL[S‑14]AHA-NH2; staple 5-12)	0.37

Cited source: patent US10487110B2
